Reported cell viability values follow for various molecules
# Tested on: SEM cells
# ASSAY DETAILS: cell viability relative to DMSO control; higher = less cytotoxic
# COND: RPMI 5 mM glucose + 10% dialyzed FBS; 48 h; 0.00234 µM
Give your result in % as a bare value.

Example entries and their recorded answers appear below.
FC(F)(F)c1ccc(/C=C/c2nc(COc3ccc(CCCCn4ccnn4)cc3)co2)cc1; 124
c1cncc(CN2CCC(n3ncc4c(N5CCOCC5)nc(-c5ccc6[nH]ccc6c5)nc43)CC2)c1; 88.4
CC1=C(/C=C/C(C)=C/C=C/C(C)=C/C=C/C=C(C)/C=C/C=C(C)/C=C/C2=C(C)CCCC2(C)C)C(C)(C)CCC1; 100
Cc1ccccc1C(C(=O)NC1CCCCC1)N(C(=O)Cn1ccnc1C)c1cccc(F)c1 (stereo not drawn); 27.9
OC[C@H]1O[C@@H](O[C@@H]2[C@@H](CO)O[C@](O)(CO)[C@H]2O)[C@H](O)[C@@H](O)[C@H]1O; 82.5

Request: I would be grateful if you could share the reported cell viability for O=C(OC)[C@]12CC[C@@]3(C)[C@]4(C)CC[C@H]5[C@@](C)(C)C(=O)C(=C[C@]5(C)C4=CC(=O)[C@@H]3[C@@H]2C[C@](C)(C)CC1)C#N .
Result: 87.2

Request: Please do the same for CNC(=O)c1ccc(-c2cnc3ncc(Cc4ccc5ncccc5c4)n3n2)cc1F as well.
Result: 121

Request: Please do the same for COC1CCC(CC1)N(C(=O)C2CCC(C)CC2)C3=C(SC(=C3)\C4=C\CCCC4)C(O)=O (stereo not drawn) as well.
Result: 114
